test: in vitro; conditions: human, liver microsomes
Description: Metabolic stability in human liver microsomes assessed as intrinsic clearance at 0.5 uM incubated for 30 mins by LC-MS/MS analysis
Below: a set of entries, each annotated with reported microsomal CLint at 0.5 h, 0.5 µM.

> print(dat)
                                   molecule                       readout.type        endpoint.value
1          O=C(CCc1nc2cccnc2n1CCO)Nc1ccccc1  microsomal CLint at 0.5 h, 0.5 µM        < 23 µL/min/mg
2       CN(CCc1cc2ncccc2[nH]1)C(=O)c1ccccc1  microsomal CLint at 0.5 h, 0.5 µM        < 23 µL/min/mg
3  CC(C)c1cc(C(=O)N2CCCC(O)(c3cc4ncccc4[nH]3)C2)on1 (stereo unspecified)  microsomal CLint at 0.5 h, 0.5 µM  23 to 26.6 µL/min/mg
4  O=C(c1ccccc1)N1CCCC(c2cn3cccnc3n2)C1 (stereo unspecified)  microsomal CLint at 0.5 h, 0.5 µM        < 23 µL/min/mg
5  O=C(c1ccccc1)N1CC=C(c2cc3ncccc3[nH]2)CC1  microsomal CLint at 0.5 h, 0.5 µM        < 23 µL/min/mg

We now examine a further molecule.
### Prompt Which microsomal CLint at 0.5 h, 0.5 µM reading was recorded for the molecule `CCN(CCc1nc2ncc(Cl)cc2[nH]1)C(=O)c1ccc(F)cc1` ?
### Response < 23 µL/min/mg

====

test: physchem; settings: buffer, pH 7.4
Description: Lipophilicity, logD of compound at pH 7.4 by HPLC analysis
Friendly reminder: logD below 3 is yes, at or above is no.

Look over these answered cases.
> print(dat)
                                   compound  assigned.label
1      CCN(C(=O)CCc1nc2ncccc2[nH]1)c1ccccc1             yes
2  O=C(c1ccc(F)cc1)N1CCCC(c2cc3ncc(Cl)cc3[nH]2)C1 (stereo unspecified)              no
3  O=C(c1cc(C2CC2)no1)N1CCCC(c2cc3ncccc3[nH]2)C1 (stereo unspecified)             yes

### Prompt Is 3 strictly greater than the compound's reported logD? compound: `O=C(c1ccccc1)N1CCC(O)(c2cc3ncccc3[nH]2)CC1`
### Response yes

### Prompt API: query returns whether the compound falls strictly under 3 in logD. Query: `O=C(Cc1ccccc1)N1CCN(c2nc3ccccc3s2)CC1`
### Response no

====

assay: in vitro; conditions: human, liver microsomes
Attribute: CLint scaled at 0.5 h, 0.5 µM

Solved cases below.
> print(dat)
                                   compound                   readout.type    endpoint.value
1  O=C(Nc1cccc(-c2cc3ncccc3[nH]2)c1)c1ccccc1  CLint scaled at 0.5 h, 0.5 µM   ≥ 392 mL/min/kg
2  Nc1cc(C2CCCN(C(=O)c3cc(C(F)(F)F)no3)C2)[nH]n1 (stereo not given)  CLint scaled at 0.5 h, 0.5 µM  < 26.7 mL/min/kg
3  CC(C)(C)OC(=O)N1CCCC(c2cn3nc(Cl)ccc3n2)C1 (stereo not given)  CLint scaled at 0.5 h, 0.5 µM   > 200 mL/min/kg
4  O=C(c1ccc(F)cc1)N1CC=C(c2cc3ncccc3[nH]2)CC1  CLint scaled at 0.5 h, 0.5 µM    ≥ 38 mL/min/kg

### Prompt # CLint scaled at 0.5 h, 0.5 µM lookup, item `CN(CCc1cc2ncccc2[nH]1)C(=O)c1ccccc1`
### Response < 30.2 mL/min/kg

The measured values listed here are drawn from ChEMBL document CHEMBL4342426.
